experiment: recombinant UMI read abundance after kanamycin selection (control-corrected) (log10(CPM+1)); higher = more efficient recombination; extreme values may be limits of the assay; sequences stand for … in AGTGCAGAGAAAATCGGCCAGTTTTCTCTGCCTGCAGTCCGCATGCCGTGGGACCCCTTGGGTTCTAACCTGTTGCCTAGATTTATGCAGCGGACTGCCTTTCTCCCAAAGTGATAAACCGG…AGGTTGGTTTCACT; site = the 11-nt donor
// condition not met strictly below 0.3 in recombinant UMI read abundance (log10); condition met otherwise

In: I'd appreciate it if you could say whether CGGAATCCATGGACCGGTTTTCCCGGTAATCCGTATTTGGT (site CGGAATCCTAC) has recombinant UMI read abundance (log10) at least equal to 0.3.
Out: condition met

In: I'd appreciate it if you could say whether ATTCAGCCATGGACCGGTTTTCCCGGTAATCCGTATTTGTT (site ATTCAGCCTAA) has recombinant UMI read abundance (log10) at least equal to 0.3.
Out: condition not met

In: I'd appreciate it if you could say whether CTGTTACCATGGACCGGTTTTCCCGGTAATCCGTATTTGCT (site CTGGTACCTAG) has recombinant UMI read abundance (log10) at least equal to 0.3.
Out: condition not met

In: I'd appreciate it if you could say whether CTAGTCGCATGGACCGGTTTTCCCGGTAATCCGTATTTGCG (site GTAGTCGCTCG) has recombinant UMI read abundance (log10) at least equal to 0.3.
Out: condition not met

In: I'd appreciate it if you could say whether GGTCCAACATGGACCGGTTTTCCCGGTAATCCGTATTTGTT (site GGTCCAACTTA) has recombinant UMI read abundance (log10) at least equal to 0.3.
Out: condition not met

In: I'd appreciate it if you could say whether AGGTCTACATGGACCGGTTTTCCCGGTAATCCGTATTTGAC (site AGGACTACTGT) has recombinant UMI read abundance (log10) at least equal to 0.3.
Out: condition not met

In: I'd appreciate it if you could say whether CCGTTAGCATGGACCGGTTTTCCCGGTAATCCGTATTTGTC (site CCGTTAGCTAA) has recombinant UMI read abundance (log10) at least equal to 0.3.
Out: condition not met

In: I'd appreciate it if you could say whether TCGCAACCATGGACCGGTTTTCCCGGTAATCCGTATTTGTT (site TCGCAACCTAA) has recombinant UMI read abundance (log10) at least equal to 0.3.
Out: condition not met

In: I'd appreciate it if you could say whether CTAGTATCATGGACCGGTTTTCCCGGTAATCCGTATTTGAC (site CTAGCAGCTGT) has recombinant UMI read abundance (log10) at least equal to 0.3.
Out: condition not met

In: I'd appreciate it if you could say whether CGCCTTACATGGACCGGTTTTCCCGGTAATCCGTATTTGCT (site CGCCGTACTAG) has recombinant UMI read abundance (log10) at least equal to 0.3.
Out: condition not met

In: I'd appreciate it if you could say whether TATAGCGCATGGACCGGTTTTCCCGGTAATCCGTATTTGTC (site TATAGCGCTGA) has recombinant UMI read abundance (log10) at least equal to 0.3.
Out: condition met

###

experiment: recombinant UMI read abundance after kanamycin selection (control-corrected) (log10(CPM+1)); higher = more efficient recombination; extreme values may be limits of the assay; sequences stand for … in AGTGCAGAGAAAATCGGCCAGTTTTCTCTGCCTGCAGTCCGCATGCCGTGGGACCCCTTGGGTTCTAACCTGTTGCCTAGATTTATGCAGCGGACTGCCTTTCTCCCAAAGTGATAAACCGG…AGGTTGGTTTCACT; site = the 11-nt donor
MEASURE_NAME: recombinant UMI read abundance (log10)
// no unit, no text: just the number

Please review the entries below; each comes with its answer.
>  <SEQUENCE_DATA>
CAGGGCTCATGGACCGGTTTTCCCGGTAATCCGTATTTGTT (site CAGGGCTCTAA)

>  <recombinant UMI read abundance (log10)>
2.71

$$$$
>  <SEQUENCE_DATA>
GCGAAGCCATGGACCGGTTTTCCCGGTAATCCGTATTTGGG (site CCGAAGCCTCC)

>  <recombinant UMI read abundance (log10)>
0.0227

$$$$
>  <SEQUENCE_DATA>
AGCTCAGCATGGACCGGTTTTCCCGGTAATCCGTATTTGGG (site AGCTAAGCTCC)

>  <recombinant UMI read abundance (log10)>
0.0351

$$$$
>  <SEQUENCE_DATA>
GGAGTGGCATGGACCGGTTTTCCCGGTAATCCGTATTTGGC (site GGAGTGGCTGC)

>  <recombinant UMI read abundance (log10)>
2

$$$$
>  <SEQUENCE_DATA>
GCTGACGCATGGACCGGTTTTCCCGGTAATCCGTATTTGAT (site GCTGACGCTAT)

>  <recombinant UMI read abundance (log10)>
1.53

$$$$

In: Please report recombinant UMI read abundance (log10) for the following sequence: GACACACCATGGACCGGTTTTCCCGGTAATCCGTATTTGGT (site GACACACCTAC)
Out: 0.00264

In: Please report recombinant UMI read abundance (log10) for the following sequence: TCGTCACCATGGACCGGTTTTCCCGGTAATCCGTATTTGTG (site TCGTCACCTCA)
Out: 0.0129

In: Please report recombinant UMI read abundance (log10) for the following sequence: ATTGAGACATGGACCGGTTTTCCCGGTAATCCGTATTTGGT (site TTTGAGACTAC)
Out: 0.435

In: Please report recombinant UMI read abundance (log10) for the following sequence: CGAGCTTCATGGACCGGTTTTCCCGGTAATCCGTATTTGAA (site CGAGCTTCTTT)
Out: 1.88

In: Please report recombinant UMI read abundance (log10) for the following sequence: TGGCTGGCATGGACCGGTTTTCCCGGTAATCCGTATTTGGC (site TGGCAGGCTGC)
Out: 0

In: Please report recombinant UMI read abundance (log10) for the following sequence: CTAGGATCATGGACCGGTTTTCCCGGTAATCCGTATTTGAT (site CTAGGATCTAT)
Out: 1.95

In: Please report recombinant UMI read abundance (log10) for the following sequence: TAGGAATCATGGACCGGTTTTCCCGGTAATCCGTATTTGCC (site TAGGAATCTCG)
Out: 0.458

###

recombinant barcode read abundance (log10) values by entry
test: recombinant barcode read abundance after kanamycin selection (control-corrected) (log10(CPM+1)); higher = more efficient recombination; sequences stand for … in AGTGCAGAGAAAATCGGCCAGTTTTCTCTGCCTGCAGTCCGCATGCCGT…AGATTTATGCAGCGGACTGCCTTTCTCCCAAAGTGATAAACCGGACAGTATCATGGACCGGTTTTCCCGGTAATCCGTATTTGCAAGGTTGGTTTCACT; site = the 11-nt target
// no unit, no text: just the number

>  <SEQUENCE_DATA>
CGAACCGCTTGGGTTCTAACCTGTTGCCT (site CGAACCGCTAG)

>  <RECORDED_NUMBER>
0.974

$$$$

In: Please report recombinant barcode read abundance (log10) for the following sequence: AGTCGTACTTGGGTTCTAACCTGTTGCCT (site AGCCGTACTAG)
Out: 0.213

In: Please report recombinant barcode read abundance (log10) for the following sequence: TAGAAGGCTTGGGTTCTAACCTGTTGCTT (site TAGAAGGCTAA)
Out: 0.805

In: Please report recombinant barcode read abundance (log10) for the following sequence: TCATATTCTTGGGTTCTAACCTGTTGCCT (site TCAAATTCTAG)
Out: 0.17

In: Please report recombinant barcode read abundance (log10) for the following sequence: TGGGACTCTTGGGTTCTAACCTGTTGCCT (site TGGGACTCTAG)
Out: 2.64

In: Please report recombinant barcode read abundance (log10) for the following sequence: ACAATGTCTTGGGTTCTAACCTGTTGCGG (site ACATTGTCTCC)
Out: 0.427

In: Please report recombinant barcode read abundance (log10) for the following sequence: ATCGTATCTTGGGTTCTAACCTGTTGCGC (site GGGCAGGCTAG)
Out: 0.832

In: Please report recombinant barcode read abundance (log10) for the following sequence: AGGATTCCTTGGGTTCTAACCTGTTGCCT (site ATGATTCCTAG)
Out: 0.158

In: Please report recombinant barcode read abundance (log10) for the following sequence: TCTCCAGCTTGGGTTCTAACCTGTTGCCT (site TCTCCAGCTAG)
Out: 1.13

###

assay: recombinant UMI read abundance after kanamycin selection (control-corrected) (log10(CPM+1)); higher = more efficient recombination; extreme values may be limits of the assay; sequences stand for … in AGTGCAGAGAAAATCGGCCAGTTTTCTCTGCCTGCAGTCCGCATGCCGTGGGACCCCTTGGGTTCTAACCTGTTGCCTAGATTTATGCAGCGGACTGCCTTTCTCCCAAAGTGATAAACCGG…AGGTTGGTTTCACT; site = the 11-nt donor
MEASURE_NAME: recombinant UMI read abundance (log10)
// no unit, no text: just the number

>  <SEQUENCE_DATA>
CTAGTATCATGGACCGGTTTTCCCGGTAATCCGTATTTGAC (site CTAGAAACTGT)

>  <MEASURE_NAME>
recombinant UMI read abundance (log10)

>  <RECORDED_NUMBER>
0

$$$$
>  <SEQUENCE_DATA>
TTTGTTTCATGGACCGGTTTTCCCGGTAATCCGTATTTGTT (site TTTGTTTCTAA)

>  <MEASURE_NAME>
recombinant UMI read abundance (log10)

>  <RECORDED_NUMBER>
0

$$$$

From here, focus on the item given below.
In: Please report recombinant UMI read abundance (log10) for the following sequence: GCTTTCCCATGGACCGGTTTTCCCGGTAATCCGTATTTGAT (site GCTTACCCTAT)
Out: 0
